- Test system: primary human hepatic stellate cells (donor 1)
- ASSAY_REMARKS: scaled lipid accumulation score (0 = DMSO-like, 1 = nortriptyline-like); higher = stronger HSC inactivation (lipid re-accumulation), active = hit call of the paper
- CONDITION: library stock concentration: 10 mM; 48 h
Where a name gives a salt, the structure may show the parent alone. The whole screen tested about 5,800 compounds, of which about 620 (11%) showed activity.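 How the source made its calls: active = score above a cut-off or among the top three wells of a plate; in these data no inactive exceeds 0.85.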 The list comes from a sample in which actives are over-represented; it also holds close analogues and randomly drawn compounds.
Answer with one of the outcomes Yes (active), No (inactive)

compound="NCC(O)c1ccc(O)c(O)c1 (centres undefined)" assigned_class=No
compound="CC(NC(=O)Cc1cc(F)cc(F)c1)C(=O)NC1C(=O)N(C)c2ccccc2-c2ccccc21 (centres undefined)" assigned_class=No
compound=O=C(c1cc(Cc2n[nH]c(=O)c3ccccc23)ccc1F)N1CCN(C(=O)C2CC2)CC1 assigned_class=No

Qu. Recorded test outcome, item Nc1c2c(nc3ccccc13)CCCC2 [Tacrine hydrochloride]
Ans. No

Qu. Recorded test outcome, item COc1cc2nccc(Oc3ccc(NC(=O)NC4CC4)c(Cl)c3)c2cc1C(N)=O [Lenvatinib (E7080)]
Ans. No

Qu. Recorded test outcome, item CN1CCN(C2=Nc3cc(F)ccc3Cc3ccccc32)CC1 [Fluperlapine]
Ans. No

---

- Test system: primary human hepatic stellate cells (donor 1)
- ASSAY_REMARKS: scaled lipid accumulation score (0 = DMSO-like, 1 = nortriptyline-like); higher = stronger HSC inactivation (lipid re-accumulation), active = hit call of the paper
- CONDITION: library stock concentration: 10 mM; 48 h
Where a name gives a salt, the structure may show the parent alone. Among all 5,800 compounds or so, about 620 (11%) showed activity.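 How the source made its calls: active = score above a cut-off or among the top three wells of a plate; in these data no inactive exceeds 0.85.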 What follows is part of a selection rich in actives, with near analogues and random picks from the rest.
Answer with one of the outcomes yes (1) = active, no (0) = inactive

Qu. Recorded test outcome, item CCCOc1ccc(C(=O)OCCN(CC)CC)cc1N [Proparacaine HCl]
Ans. no (0)

Qu. Recorded test outcome, item Clc1ccc2c(c1)C(N1CCNCC1)=Nc1ccccc1O2
Ans. yes (1)

---

- System: primary human hepatic stellate cells (donor 1)
- ASSAY_REMARKS: scaled lipid accumulation score (0 = DMSO-like, 1 = nortriptyline-like); higher = stronger HSC inactivation (lipid re-accumulation), active = hit call of the paper
- CONDITION: 48 h
Where a name gives a salt, the structure may show the parent alone. Hit rate of the full screen: of about 5,800 compounds, about 620 (11%) showed activity.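 Rule for the calls: active = score above a cut-off or among the top three wells of a plate; in these data no inactive exceeds 0.85.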 This is one part of a sample in which actives are shown more often than they occur.
Answer with one of the outcomes active, inactive

Example cases with answers are listed next.
compound=c1ccc2c(c1)CCCc1cc(NCCN3CCOCC3)nnc1-2 assigned_class=inactive
compound="CN1C(=O)CC[C@H]1c1cccnc1 [Cotinine (-)]" assigned_class=inactive

Qu. Recorded test outcome, item CC(CN(C)C)CN1c2ccccc2CCc2ccccc21 (configuration not stated) [Trimipramine maleate salt]
Ans. inactive

Qu. Recorded test outcome, item CN1CC[C@]23c4ccccc4N[C@H]1[C@]21CCN(C)[C@H]3Nc2ccccc21 [Calycanthine]
Ans. inactive

---

- System: primary human hepatic stellate cells (donor 1)
- ASSAY_REMARKS: scaled lipid accumulation score (0 = DMSO-like, 1 = nortriptyline-like); higher = stronger HSC inactivation (lipid re-accumulation), active = hit call of the paper
- CONDITION: library stock concentration: 2 mM; 48 h
Out of some 5,800 compounds screened, about 620 (11%) showed activity. The full list was thinned out, with actives kept by preference.
Form field: scaled lipid accumulation score (one value per entry).

compound=Clc1ccc(C2(c3ccc(-c4cn[nH]c4)cc3)CCNCC2)cc1 assayed_system="primary human hepatic stellate cells (donor 1)" parameter_measured="scaled lipid accumulation score" value_measured="0.95 (active)"
compound=COc1cc2nc(N3CCCN(C)CC3)nc(NC3CCN(Cc4ccccc4)CC3)c2cc1OC assayed_system="primary human hepatic stellate cells (donor 1)" parameter_measured="scaled lipid accumulation score" value_measured="0.569 (inactive)"
compound=CCOc1cc2ncc(C#N)c(Nc3ccc(F)c(Cl)c3)c2cc1NC(=O)/C=C/CN(C)C assayed_system="primary human hepatic stellate cells (donor 1)" parameter_measured="scaled lipid accumulation score" value_measured="0.269 (inactive)"
compound="COc1cc(O)c2c(c1)/C=C/C[C@H](O)[C@H](O)C(=O)/C=C\\C[C@H](C)OC2=O [5z-7-oxozeaenol]" assayed_system="primary human hepatic stellate cells (donor 1)" parameter_measured="scaled lipid accumulation score" value_measured="≤ -0.016 (inactive)"
compound="Cc1nc(Nc2ncc(C(=O)Nc3c(C)cccc3Cl)s2)cc(N2CCN(CCO)CC2)n1 [Dasatinib]" assayed_system="primary human hepatic stellate cells (donor 1)" parameter_measured="scaled lipid accumulation score" value_measured="0.602 (inactive)"
compound=Fc1cc(-c2ccnc(Nc3ccc(-n4cnc(N5CCOCC5)n4)cc3)n2)cc(N2CCOCC2)c1 assayed_system="primary human hepatic stellate cells (donor 1)" parameter_measured="scaled lipid accumulation score" value_measured="0.178 (inactive)"

Qu. Form field: reported scaled lipid accumulation score of CN1CCC(c2c(O)cc(O)c3c(=O)cc(-c4ccccc4Cl)oc23)C1CO (configuration not stated) [Riviciclib]
Ans. ≤ -0.001 (inactive)

Qu. Form field: reported scaled lipid accumulation score of COc1cc2nccc(Oc3ccc(NC(=O)NC4CC4)c(Cl)c3)c2cc1C(N)=O
Ans. ≤ -0.005 (inactive)

Qu. Form field: reported scaled lipid accumulation score of O=C(O[C@@H]1Cc2c(O)cc(O)cc2O[C@@H]1c1cc(O)c(O)c(O)c1)c1cc(O)c(O)c(O)c1 [Epigallocatechin gallate]
Ans. ≤ 0 (inactive)

Qu. Form field: reported scaled lipid accumulation score of CN([C@@H](Cc1ccc(OS(=O)(=O)c2cccc3cnccc23)cc1)C(=O)N1CCN(c2ccccc2)CC1)S(=O)(=O)c1cccc2cnccc12
Ans. ≤ 0 (inactive)

Qu. Form field: reported scaled lipid accumulation score of CC(C)CC(=O)Nc1n[nH]c2c1CN(C(=O)C1CCN(C)CC1)C2(C)C
Ans. 0.029 (inactive)

Qu. Form field: reported scaled lipid accumulation score of Cc1cc(Nc2ncc(Cl)c(Nc3ccccc3S(=O)(=O)C(C)C)n2)c(OC(C)C)cc1C1CCNCC1 [Ceritinib]
Ans. 0.663 (inactive)

Qu. Form field: reported scaled lipid accumulation score of O=C(Nc1ccc2[nH]nc(-c3ccncc3)c2c1)[C@@H]1CCN(CC(=O)N2CCN(c3ccc(-c4ncccn4)cc3)CC2)C1
Ans. ≤ -0.001 (inactive)

Qu. Form field: reported scaled lipid accumulation score of O=c1cc(N2CCOCC2)oc2c1ccc1ccccc12
Ans. ≤ 0 (inactive)

Qu. Form field: reported scaled lipid accumulation score of Cc1nc2ccc(-n3ncc(C(=O)c4cc5ccccc5[nH]4)c3N)cc2[nH]1
Ans. ≤ 0 (inactive)

Qu. Form field: reported scaled lipid accumulation score of C[C@@H](Oc1cc(-c2cnn(C3CCNCC3)c2)cnc1N)c1c(Cl)ccc(F)c1Cl
Ans. 0.477 (inactive)

Qu. Form field: reported scaled lipid accumulation score of Cc1ccc(Nc2cc(-c3cccc(N4C(=O)c5ccccc5C4=O)c3)ncn2)cc1NS(C)(=O)=O
Ans. ≤ -0.016 (inactive)

Qu. Form field: reported scaled lipid accumulation score of Cc1oncc1C(=O)Nc1ccc(C(F)(F)F)cc1 [Leflunomide]
Ans. ≤ 0 (inactive)

Qu. Form field: reported scaled lipid accumulation score of O=C(NC1CC1)c1cccc(-c2ccc3c(NC(=O)C4CC4)n[nH]c3c2)c1
Ans. ≤ 0 (inactive)

Qu. Form field: reported scaled lipid accumulation score of CO[C@H]1C[C@@H]2CC[C@@H](C)[C@@](O)(O2)C(=O)C(=O)N2CCCC[C@H]2C(=O)O[C@H]([C@H](C)C[C@@H]2CC[C@@H](O)[C@H](OC)C2)CC(=O)[C@H](C)/C=C(\C)[C@@H](O)[C@@H](OC)C(=O)[C@H](C)C[C@H](C)/C=C/C=C/C=C/1C [Rapamycin]
Ans. ≤ 0 (inactive)

Qu. Form field: reported scaled lipid accumulation score of CC(C)NC[C@@H](C(=O)N1CCN(c2ncnc3c2[C@H](C)C[C@H]3O)CC1)c1ccc(Cl)cc1
Ans. 0.083 (inactive)

Qu. Form field: reported scaled lipid accumulation score of OCCn1cc(-c2ccc3c(c2)CC/C3=N\O)c(-c2ccncc2)n1
Ans. ≤ -0.009 (inactive)

---

- Test system: primary human hepatic stellate cells (donor 1)
- ASSAY_REMARKS: scaled lipid accumulation score (0 = DMSO-like, 1 = nortriptyline-like); higher = stronger HSC inactivation (lipid re-accumulation), active = hit call of the paper
- CONDITION: library stock concentration: 10 mM; 48 h
Structures can show the parent of a compound that is named as a salt. Screen size: about 5,800 compounds; about 620 (11%) showed activity.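 The calls were made as follows: active = score above a cut-off or among the top three wells of a plate; in these data no inactive exceeds 0.85.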 The sample as a whole holds a higher share of actives than the screen did.
Answer with one of the outcomes active, inactive

Example cases with answers are listed next.
molecule=Cc1cc(C=C2C(=O)C=CC2=O)cc(C)c1O assigned_class=active
molecule="CC(=O)[C@]1(O)Cc2c(O)c3c(c(O)c2[C@@H](O[C@H]2C[C@H](N)[C@H](O)[C@H](C)O2)C1)C(=O)c1ccccc1C3=O [Idarubicin HCl]" assigned_class=inactive
molecule=O=C(O)CN(CC(=O)O)Cc1cc2c(cc1O)Oc1cc(O)c(CN(CC(=O)O)CC(=O)O)cc1C21OC(=O)c2ccccc21 assigned_class=inactive
molecule=CC1(C)[C@H]2CC[C@@]1(C)C(=O)C2 assigned_class=inactive
molecule=CC(=O)[C@]1(O)Cc2c(O)c3c(c(O)c2[C@@H](O[C@H]2C[C@H](N)[C@H](O)[C@H](C)O2)C1)C(=O)c1ccccc1C3=O assigned_class=inactive
molecule=CCCOc1ccc(C=C2SC(=O)NC2=O)cc1 assigned_class=inactive

Qu. Recorded test outcome, item Cc1cc2c(C(=O)NCC(C)c3ccccc3)c(O)c(O)cc2c(O)c1-c1c(C)cc2c(C(=O)NCC(C)c3ccccc3)c(O)c(O)cc2c1O (configuration not stated)
Ans. inactive
